assay: Therapeutic index, ratio of hemolytic activity in human RBC to MIC for Escherichia coli; conditions: human red blood cells (RBC), read-out: TI
Square brackets hold non-standard residues; d marks the D form. Peptide text beside a SMILES is read from it. Orn = NCCC[C@H](N)C(=O)O
quantity: selectivity ratio
Would you mind answering with just the numeric figure?

Task: Report selectivity ratio, nothing else, for this molecule: CC(C)C[C@@H]1NC(=O)[C@H](CCCN)NC(=O)[C@H](C(C)C)NC(=O)[C@@H]2CCCN2C(=O)[C@@H](Cc2ccccc2)NC(=O)[C@H](CC(C)C)NC(=O)[C@H](CCCN)NC(=O)[C@H](C(C)C)NC(=O)[C@@H]2CCCN2C(=O)[C@@H](Cc2ccccc2)NC1=O [GRAMICIDIN S] (cyclo(L[dF]PV[Orn]L[dF]PV[Orn]))
Result: 6

====

assay: Therapeutic index, ratio of hemolytic activity in human RBC to MIC for Streptococcus pneumoniae; details: human red blood cells (RBC), read-out: TI
Square brackets hold non-standard residues; d marks the D form. Peptide text beside a SMILES is read from it. Orn = NCCC[C@H](N)C(=O)O
For each of the molecules below, state its selectivity ratio.
In your answer, state the number alone without any accompanying words.

Task: Identify measured selectivity ratio corresponding to CC(C)C[C@@H]1NC(=O)[C@H](CCCCN)NC(=O)[C@H](C(C)C)NC(=O)[C@@H]2CCCN2C(=O)[C@@H](Cc2ccc(O)cc2)NC(=O)[C@H](CC(C)C)NC(=O)[C@H](CCCCN)NC(=O)[C@H](C(C)C)NC(=O)[C@@H]2CCCN2C(=O)[C@@H](Cc2ccc(O)cc2)NC(=O)[C@H](CCCCN)NC1=O (cyclo(VKLK[dY]PVKL[dY]P))
Result: 255

Task: Tell me its selectivity ratio given CC(C)C[C@@H]1NC(=O)[C@H](CCCN)NC(=O)[C@H](C(C)C)NC(=O)[C@@H]2CCCN2C(=O)[C@@H](Cc2ccccc2)NC(=O)[C@H](CC(C)C)NC(=O)[C@H](CCCN)NC(=O)[C@H](C(C)C)NC(=O)[C@@H]2CCCN2C(=O)[C@@H](Cc2ccccc2)NC1=O [GRAMICIDIN S] (cyclo(L[dF]PV[Orn]L[dF]PV[Orn])) as the entry.
Result: 100

Task: Report selectivity ratio for CC(C)C[C@@H]1NC(=O)[C@H](CCCCN)NC(=O)[C@H](C(C)C)NC(=O)[C@@H]2CCCN2C(=O)[C@@H](Cc2ccc(O)cc2)NC(=O)[C@H](CC(C)C)NC(=O)[C@H](CCCCN)NC(=O)[C@H](C(C)C)NC(=O)[C@@H]2CCCN2C(=O)[C@@H](Cc2ccc(O)cc2)NC1=O (cyclo(KL[dY]PVKL[dY]PV))
Result: 100

====

Please provide measured selectivity ratio for the entries that follow.
experiment: Therapeutic index, ratio of hemolytic activity in human RBC to MIC for Candida albicans; conditions: human red blood cells (RBC), read-out: TI
Square brackets hold non-standard residues; d marks the D form. Peptide text beside a SMILES is read from it. Orn = NCCC[C@H](N)C(=O)O
# respond with the number and nothing more

Task: Return selectivity ratio for the following compound: CC(C)C[C@@H]1NC(=O)[C@H](CCCN)NC(=O)[C@H](C(C)C)NC(=O)[C@@H]2CCCN2C(=O)[C@@H](Cc2ccccc2)NC(=O)[C@H](CC(C)C)NC(=O)[C@H](CCCN)NC(=O)[C@H](C(C)C)NC(=O)[C@@H]2CCCN2C(=O)[C@@H](Cc2ccccc2)NC1=O [GRAMICIDIN S] (cyclo(L[dF]PV[Orn]L[dF]PV[Orn]))
Result: 12

Task: Annotate the compound CC(C)C[C@@H]1NC(=O)[C@H](CCCCN)NC(=O)[C@H](C(C)C)NC(=O)[C@@H]2CCCN2C(=O)[C@@H](Cc2ccc(O)cc2)NC(=O)[C@H](CC(C)C)NC(=O)[C@H](CCCCN)NC(=O)[C@H](C(C)C)NC(=O)[C@@H]2CCCN2C(=O)[C@@H](Cc2ccc(O)cc2)NC(=O)[C@H](CCCCN)NC1=O (cyclo(VKLK[dY]PVKL[dY]P)) with its measured selectivity ratio.
Result: 16

Task: Annotate the compound CC(C)C[C@@H]1NC(=O)[C@H](CCCCN)NC(=O)[C@H](C(C)C)NC(=O)[C@@H]2CCCN2C(=O)[C@@H](Cc2ccc(O)cc2)NC(=O)[C@H](CC(C)C)NC(=O)[C@H](CCCCN)NC(=O)[C@H](C(C)C)NC(=O)[C@H](CCCCN)NC(=O)[C@H](CC(C)C)NC(=O)[C@@H]2CCCN2C(=O)[C@@H](Cc2ccc(O)cc2)NC(=O)[C@H](C(C)C)NC(=O)[C@H](CCCCN)NC1=O (cyclo(KLKV[dY]PLKVKL[dY]PV)) with its measured selectivity ratio.
Result: 2

====

test: Therapeutic index, ratio of hemolytic activity in human RBC to MIC for Enterococcus faecalis; conditions: human red blood cells (RBC), read-out: TI
Square brackets hold non-standard residues; d marks the D form. Peptide text beside a SMILES is read from it. Orn = NCCC[C@H](N)C(=O)O
quantity: selectivity ratio
Form: value (number only, do not type unit).

Task: Please indicate selectivity ratio recorded for CC(C)C[C@@H]1NC(=O)[C@H](CCCN)NC(=O)[C@H](C(C)C)NC(=O)[C@@H]2CCCN2C(=O)[C@@H](Cc2ccccc2)NC(=O)[C@H](CC(C)C)NC(=O)[C@H](CCCN)NC(=O)[C@H](C(C)C)NC(=O)[C@@H]2CCCN2C(=O)[C@@H](Cc2ccccc2)NC1=O [GRAMICIDIN S] (cyclo(L[dF]PV[Orn]L[dF]PV[Orn]))
Result: 50

====

tested on: Streptococcus mitis; assay: Antimicrobial activity against Streptococcus mitis after 24 hrs by standard microtiter dilution method; type: functional
Square brackets hold non-standard residues; d marks the D form. Peptide text beside a SMILES is read from it.
Exercise: for every item that follows, state its recorded MIC.
Kindly provide the numeric value in µg/mL only, without the unit symbol.

Task: Please list MIC recorded for the compound CC(C)C[C@@H]1NC(=O)[C@H](CCCCN)NC(=O)[C@H](C(C)C)NC(=O)[C@@H]2CCCN2C(=O)[C@@H](Cc2ccc(O)cc2)NC(=O)[C@H](CC(C)C)NC(=O)[C@H](CCCCN)NC(=O)[C@H](C(C)C)NC(=O)[C@H](CCCCN)NC(=O)[C@H](CC(C)C)NC(=O)[C@H](CCCCN)NC(=O)[C@@H]2CCCN2C(=O)[C@@H](Cc2ccc(O)cc2)NC(=O)[C@H](CCCCN)NC(=O)[C@H](CCCCN)NC1=O (cyclo(VKLKK[dY]PKLKVKL[dY]P))
Result: 8

Task: Could you please provide reported MIC for CC(C)C[C@@H]1NC(=O)[C@H](CCCCN)NC(=O)[C@H](C(C)C)NC(=O)[C@@H]2CCCN2C(=O)[C@@H](Cc2ccc(O)cc2)NC(=O)[C@H](CC(C)C)NC(=O)[C@H](CCCCN)NC(=O)[C@H](C(C)C)NC(=O)[C@@H]2CCCN2C(=O)[C@@H](Cc2ccc(O)cc2)NC1=O (cyclo(KL[dY]PVKL[dY]PV)) ? Thanks!
Result: 1

====

Assignment: determine reported selectivity ratio for the given molecules.
assay: Therapeutic index, ratio of hemolytic activity in human RBC to MIC for Corynebacterium jeikeium; settings: human red blood cells (RBC), read-out: TI
Square brackets hold non-standard residues; d marks the D form. Peptide text beside a SMILES is read from it. Orn = NCCC[C@H](N)C(=O)O

Task: Annotate the molecule CC(C)C[C@@H]1NC(=O)[C@H](CCCCN)NC(=O)[C@H](C(C)C)NC(=O)[C@@H]2CCCN2C(=O)[C@@H](Cc2ccc(O)cc2)NC(=O)[C@H](CC(C)C)NC(=O)[C@H](CCCCN)NC(=O)[C@H](C(C)C)NC(=O)[C@@H]2CCCN2C(=O)[C@@H](Cc2ccc(O)cc2)NC1=O (cyclo(KL[dY]PVKL[dY]PV)) with its measured selectivity ratio.
Result: 100

Task: Return value of selectivity ratio for input CC(C)C[C@@H]1NC(=O)[C@H](CCCN)NC(=O)[C@H](C(C)C)NC(=O)[C@@H]2CCCN2C(=O)[C@@H](Cc2ccccc2)NC(=O)[C@H](CC(C)C)NC(=O)[C@H](CCCN)NC(=O)[C@H](C(C)C)NC(=O)[C@@H]2CCCN2C(=O)[C@@H](Cc2ccccc2)NC1=O [GRAMICIDIN S] (cyclo(L[dF]PV[Orn]L[dF]PV[Orn])) , no commentary.
Result: 25

====

assay: Therapeutic index, ratio of hemolytic activity in human RBC to MIC for Streptococcus mitis; settings: human red blood cells (RBC), read-out: TI
Square brackets hold non-standard residues; d marks the D form. Peptide text beside a SMILES is read from it. Orn = NCCC[C@H](N)C(=O)O
Answer each item with its documented selectivity ratio.
Answer using only a numeral; do not append any unit.

Task: Return the recorded selectivity ratio value; entry: CC(C)C[C@@H]1NC(=O)[C@H](CCCCN)NC(=O)[C@H](C(C)C)NC(=O)[C@@H]2CCCN2C(=O)[C@@H](Cc2ccc(O)cc2)NC(=O)[C@H](CC(C)C)NC(=O)[C@H](CCCCN)NC(=O)[C@H](C(C)C)NC(=O)[C@@H]2CCCN2C(=O)[C@@H](Cc2ccc(O)cc2)NC1=O (cyclo(KL[dY]PVKL[dY]PV))
Result: 100

Task: Specify measured selectivity ratio for CC(C)C[C@@H]1NC(=O)[C@H](CCCN)NC(=O)[C@H](C(C)C)NC(=O)[C@@H]2CCCN2C(=O)[C@@H](Cc2ccccc2)NC(=O)[C@H](CC(C)C)NC(=O)[C@H](CCCN)NC(=O)[C@H](C(C)C)NC(=O)[C@@H]2CCCN2C(=O)[C@@H](Cc2ccccc2)NC1=O [GRAMICIDIN S] (cyclo(L[dF]PV[Orn]L[dF]PV[Orn])) .
Result: 200
